Source of measurements: patent US20110178053A1

Target system: UniProt:P53350
Sequence (P53350 whole entry, species assumed): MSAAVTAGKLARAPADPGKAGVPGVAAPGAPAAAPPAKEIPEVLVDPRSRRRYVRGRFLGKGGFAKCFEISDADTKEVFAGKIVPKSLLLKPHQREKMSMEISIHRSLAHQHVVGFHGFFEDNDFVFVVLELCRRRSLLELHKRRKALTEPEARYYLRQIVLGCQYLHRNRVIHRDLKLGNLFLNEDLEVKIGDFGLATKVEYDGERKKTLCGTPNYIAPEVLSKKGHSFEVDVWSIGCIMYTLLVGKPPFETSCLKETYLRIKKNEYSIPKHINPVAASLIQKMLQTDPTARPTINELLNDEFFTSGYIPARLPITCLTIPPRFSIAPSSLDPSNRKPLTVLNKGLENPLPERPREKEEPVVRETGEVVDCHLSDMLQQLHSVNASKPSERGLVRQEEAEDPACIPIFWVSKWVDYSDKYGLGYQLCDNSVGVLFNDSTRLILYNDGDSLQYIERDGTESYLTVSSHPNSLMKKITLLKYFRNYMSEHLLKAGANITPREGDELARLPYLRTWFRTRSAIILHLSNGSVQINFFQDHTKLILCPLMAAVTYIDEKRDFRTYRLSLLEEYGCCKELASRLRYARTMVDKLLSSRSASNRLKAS
Property: IC50

Some entries whose results are on file:
Chemical structure	Obs value
COc1ccnc2[nH]c3cnc(-c4cccnc4)cc3c12	0.1 to 1 µM
COc1cnc2[nH]c3cnc(-c4cnn(CCCCCNC(=O)OC(C)(C)C)c4)cc3c2c1	> 5 µM
CCCN(C)c1cnc2[nH]c3cnc(-c4cccnc4)cc3c2c1	0.1 to 1 µM
Fc1cnc2[nH]c3cnc(-c4cccnc4)cc3c2c1N1CCN(CCCN2CCCCC2)CC1	0.1 to 1 µM
CN(c1ccc(-c2c(F)cnc3[nH]c4cnc(-c5cccnc5)cc4c23)cc1)S(C)(=O)=O	0.1 to 1 µM
CC(C)(C)OC(=O)c1cnc2[nH]c3cnc(-c4cccnc4)cc3c2c1	> 5 µM

Lab note: next molecule to report on.
Reported IC50 for UniProt:P53350, given `Cn1ccc(-c2cnc3[nH]c4cnc(-c5cccnc5)cc4c3c2)n1` ?
1 to 5 µM
